Ref: EPA's aquatic toxicity sets

// reported 48 h IGC50 (-log10 mol/L) per item
System: Tetrahymena pyriformis
Experiment: 48 h IGC50 (-log10 mol/L); higher = more toxic

>  <compound>
Cc1ccc(Br)s1

>  <48 h IGC50 (-log10 mol/L)>
3.65

$$$$
>  <compound>
O=Cc1ccc(Cl)cc1

>  <48 h IGC50 (-log10 mol/L)>
3.4

$$$$
>  <compound>
CCCCCCCCCO

>  <48 h IGC50 (-log10 mol/L)>
3.85

$$$$
>  <compound>
OCCCCCCCCCl

>  <48 h IGC50 (-log10 mol/L)>
3.49

$$$$
>  <compound>
CC(O)CCl (stereo unspecified)

>  <48 h IGC50 (-log10 mol/L)>
1.51

$$$$
>  <compound>
CCCCC(C(=O)OCC)C(=O)OCC

>  <48 h IGC50 (-log10 mol/L)>
3.56

$$$$
>  <compound>
CCCCCCC(O)CCC (stereo unspecified)

>  <48 h IGC50 (-log10 mol/L)>
3.85

$$$$
>  <compound>
CCOC(=O)CCCC(=O)CC(=O)OCC

>  <48 h IGC50 (-log10 mol/L)>
2.62

$$$$
>  <compound>
O=[N+]([O-])c1cc(O)ccc1Cl

>  <48 h IGC50 (-log10 mol/L)>
4.27

$$$$
>  <compound>
CC(C)=NO

>  <48 h IGC50 (-log10 mol/L)>
1.75

$$$$
>  <compound>
CCCCCOc1ccc(O)cc1

>  <48 h IGC50 (-log10 mol/L)>
4.36

$$$$
>  <compound>
C=CC(N)=O

>  <48 h IGC50 (-log10 mol/L)>
2.19

$$$$
>  <compound>
CC(C)CC(N)=O

>  <48 h IGC50 (-log10 mol/L)>
1.34

$$$$
>  <compound>
N#Cc1ccc(Cl)cc1

>  <48 h IGC50 (-log10 mol/L)>
3

$$$$
>  <compound>
Cc1cccc(C#N)c1

>  <48 h IGC50 (-log10 mol/L)>
2.75

$$$$
>  <compound>
CCOC(=O)C(C)(C)Br

>  <48 h IGC50 (-log10 mol/L)>
3.15

$$$$
>  <compound>
O=C(O)Cc1ccc(O)cc1

>  <48 h IGC50 (-log10 mol/L)>
1.5

$$$$
>  <compound>
CCCCCCCCCCC#N

>  <48 h IGC50 (-log10 mol/L)>
4.65

$$$$
>  <compound>
O=[N+]([O-])c1ccc(F)c(Cl)c1

>  <48 h IGC50 (-log10 mol/L)>
3.8

$$$$
>  <compound>
OC(CCl)CCl

>  <48 h IGC50 (-log10 mol/L)>
2.21

$$$$
>  <compound>
Oc1c(Cl)cccc1Cl

>  <48 h IGC50 (-log10 mol/L)>
3.73

$$$$
>  <compound>
N#CCCc1ccccc1

>  <48 h IGC50 (-log10 mol/L)>
2.84

$$$$
>  <compound>
CCCC(C)N (stereo unspecified)

>  <48 h IGC50 (-log10 mol/L)>
2.31

$$$$
>  <compound>
COC(=O)c1cc(O)cc(O)c1

>  <48 h IGC50 (-log10 mol/L)>
2.86

$$$$
>  <compound>
N#Cc1c(F)c(F)c(C#N)c(F)c1F

>  <48 h IGC50 (-log10 mol/L)>
5.55

$$$$
>  <compound>
SC1CCCCC1

>  <48 h IGC50 (-log10 mol/L)>
3

$$$$
>  <compound>
Cc1ccc(C)c(O)c1

>  <48 h IGC50 (-log10 mol/L)>
3.14

$$$$
>  <compound>
C=CCI

>  <48 h IGC50 (-log10 mol/L)>
3.8

$$$$
>  <compound>
CCCCCCOC(C)=O

>  <48 h IGC50 (-log10 mol/L)>
2.99

$$$$
>  <compound>
CCCCc1ccccc1

>  <48 h IGC50 (-log10 mol/L)>
4.25

$$$$
>  <compound>
Cc1cccc(Cl)c1C#N

>  <48 h IGC50 (-log10 mol/L)>
3.46

$$$$
>  <compound>
S=C=Nc1ccc2c(c1)CCC2

>  <48 h IGC50 (-log10 mol/L)>
5.48

$$$$
>  <compound>
CC1CC(=O)O1 (stereo unspecified)

>  <48 h IGC50 (-log10 mol/L)>
2.24

$$$$
>  <compound>
CCOC(=O)C(Cc1ccccc1)C(=O)OCC

>  <48 h IGC50 (-log10 mol/L)>
3.71

$$$$
>  <compound>
O=C(O)c1cccc(Cl)c1Cl

>  <48 h IGC50 (-log10 mol/L)>
2.59

$$$$
>  <compound>
CC(C)CCCO

>  <48 h IGC50 (-log10 mol/L)>
2.36

$$$$

----------
Test system: Pimephales promelas
Assay: 96 h LC50 (-log10 mol/L); higher = more toxic

>  <item smiles>
COc1ccccc1[N+](=O)[O-]

>  <96 h LC50 (-log10 mol/L)>
2.9

$$$$
>  <item smiles>
CS(=O)(=O)Oc1ccc(Cl)cc1Cl

>  <96 h LC50 (-log10 mol/L)>
4.74

$$$$
>  <item smiles>
c1cc2c3c(cccc3c1)CC2

>  <96 h LC50 (-log10 mol/L)>
4.98

$$$$
>  <item smiles>
Cc1ccccc1F

>  <96 h LC50 (-log10 mol/L)>
3.75

$$$$
>  <item smiles>
CCCCCCCCC(C)=O

>  <96 h LC50 (-log10 mol/L)>
4.51

$$$$
>  <item smiles>
O=C(O)C(Br)Br

>  <96 h LC50 (-log10 mol/L)>
3.5

$$$$
>  <item smiles>
CCN(CC)c1ccccc1

>  <96 h LC50 (-log10 mol/L)>
3.96

$$$$
>  <item smiles>
O=[N+]([O-])C(CO)(CO)CO

>  <96 h LC50 (-log10 mol/L)>
2.73

$$$$
>  <item smiles>
c1ccc2c(c1)CCC2

>  <96 h LC50 (-log10 mol/L)>
3.93

$$$$
>  <item smiles>
C=CCc1ccc(O)c(OC)c1

>  <96 h LC50 (-log10 mol/L)>
3.83

$$$$
>  <item smiles>
CC(C)(c1ccc(O)cc1)c1ccc(O)cc1

>  <96 h LC50 (-log10 mol/L)>
4.69

$$$$
>  <item smiles>
CCOP(=O)(Cc1ccccc1)OCC

>  <96 h LC50 (-log10 mol/L)>
2.83

$$$$
>  <item smiles>
Cc1c(N)cccc1[N+](=O)[O-]

>  <96 h LC50 (-log10 mol/L)>
3.48

$$$$
>  <item smiles>
NCCN1CCNCC1

>  <96 h LC50 (-log10 mol/L)>
1.77

$$$$
>  <item smiles>
O=Cc1cc(O)ccc1[N+](=O)[O-]

>  <96 h LC50 (-log10 mol/L)>
3.6

$$$$

----------
System: Daphnia magna
Assay: 48 h LC50 (-log10 mol/L); higher = more toxic
// reported 48 h LC50 (-log10 mol/L) per item

>  <item smiles>
Cc1ccc(O)c(C)c1

>  <48 h LC50 (-log10 mol/L)>
4.76

$$$$
>  <item smiles>
Cc1cc(Cl)cc(Cl)c1O

>  <48 h LC50 (-log10 mol/L)>
5.63

$$$$
>  <item smiles>
CNC(=O)ON=C(C)SC

>  <48 h LC50 (-log10 mol/L)>
6.96

$$$$
>  <item smiles>
Cc1cccc(C)c1

>  <48 h LC50 (-log10 mol/L)>
3.65

$$$$
>  <item smiles>
S=C=Nc1ccc(N=C=S)cc1

>  <48 h LC50 (-log10 mol/L)>
6.4

$$$$
>  <item smiles>
CN(C)[C@@H]1C(=O)C(C(N)=O)=C(O)[C@@]2(O)C(=O)C3=C(O)c4c(O)cccc4[C@@](C)(O)[C@H]3C[C@@H]12

>  <48 h LC50 (-log10 mol/L)>
6.43

$$$$
>  <item smiles>
CNC(=O)O/N=C/C(C)(C)SC

>  <48 h LC50 (-log10 mol/L)>
5.55

$$$$
>  <item smiles>
c1ccc(NNc2ccccc2)cc1

>  <48 h LC50 (-log10 mol/L)>
4.65

$$$$
>  <item smiles>
CCCN(CCC)c1c([N+](=O)[O-])cc(C(F)(F)F)cc1[N+](=O)[O-]

>  <48 h LC50 (-log10 mol/L)>
6.24

$$$$
>  <item smiles>
O=C(NC(=O)c1c(F)cccc1F)Nc1ccc(Cl)cc1

>  <48 h LC50 (-log10 mol/L)>
7.8

$$$$
>  <item smiles>
Oc1c(Cl)c(Cl)cc(Cl)c1Cl

>  <48 h LC50 (-log10 mol/L)>
5.61

$$$$
>  <item smiles>
CC(C)[C@H](C(=O)O[C@H](C#N)c1cccc(Oc2ccccc2)c1)c1ccc(Cl)cc1

>  <48 h LC50 (-log10 mol/L)>
8.58

$$$$
